Biological target: T1, human LAG-3 on cells (HEK293-hLAG-3 stable cell line) (human, UniProt P18627 23-525)
T1 sequence: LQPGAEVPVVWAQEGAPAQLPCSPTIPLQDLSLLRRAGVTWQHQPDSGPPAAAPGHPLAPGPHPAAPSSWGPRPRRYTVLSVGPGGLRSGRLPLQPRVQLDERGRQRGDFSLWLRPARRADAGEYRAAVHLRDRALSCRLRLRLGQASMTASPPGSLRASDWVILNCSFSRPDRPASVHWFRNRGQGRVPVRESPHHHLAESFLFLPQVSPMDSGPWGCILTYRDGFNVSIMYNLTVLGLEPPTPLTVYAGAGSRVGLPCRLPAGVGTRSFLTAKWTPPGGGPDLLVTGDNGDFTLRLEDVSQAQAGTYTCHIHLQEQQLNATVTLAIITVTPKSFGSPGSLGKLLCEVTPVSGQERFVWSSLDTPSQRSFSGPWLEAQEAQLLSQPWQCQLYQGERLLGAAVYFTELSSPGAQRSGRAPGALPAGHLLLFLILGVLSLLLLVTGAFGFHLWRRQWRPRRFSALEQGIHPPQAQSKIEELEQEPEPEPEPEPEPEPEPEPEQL
Experiment: FACS, HEK293-hLAG-3, antibody 40 nM

binder	Mean fluorescence intensity
556F6B8-12 humanized antibody (antibody, V domains shown) VH: RVQLQESGPGLVKPSETLSLTCTVSGFSLIKYGVHWIRQPPGKGLEWIGVIWRGGITDYNAAFMSRVTISKDTSKSQVSLKLSSVTAADTAVYYCAKWDGPLAMDYWGQGTTVTVSS VL: DIVLTQSPSFLSASVGDRVTITCKASQDVGTTVAWYQQKPGKSPKLLIYWASTRHTGVPSRFSGSGSGTEFTLTISSLQPEDFATYYCQQYSSYPYTFGQGTKLEIK	87
556F6B8-6 humanized antibody (antibody, V domains shown) VH: QVQLQESGPGLVKPSETLSLTCTVSGFSIIKYGVHWIRQPPGKGLEWIGVIWRGGITDYNAAFMSRVTISVDTSKNQFSLKLSSVTAADTAVYYCARWDGPLAMDYWGQGTTVTVSS VL: DIVLTQSPSFLSASVGDRVTITCKASQDVGTTVAWYQQKPGKAPKLLIYWASTRHTGVPSRFSGSGSGTEFTLTISSLQPEDFATYYCQQYSSYPYTFGQGTKLEIK	50
556F6B8-11 humanized antibody (antibody, V domains shown) VH: QVQLQESGPGLVKPSETLSLTCTVSGFSLIKYGVHWIRQPPGKGLEWIGVIWRGGITDYNAAFMSRVTISKDTSKSQVSLKLSSVTAADTAVYYCARWDGPLAMDYWGQGTTVTVSS VL: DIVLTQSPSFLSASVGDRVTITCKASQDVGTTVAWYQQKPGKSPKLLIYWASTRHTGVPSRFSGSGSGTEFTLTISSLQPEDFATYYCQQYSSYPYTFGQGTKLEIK	100
